- assay notes: survival after telomere uncapping, modulators, primary screen, cell-based (AID 1259312);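 also: virus expresses mutant telomerase RNA that uncaps telomeres and kills cells; compound added 2 days after infection so exposure lasts 3 days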
- settings: HCT116 + Ad-hTR-mut, MTT, 5 d; at 10 µM, active compounds read high
Hit rate of the full screen: of about 4,500 compounds, about 200 (4.4%) were called active. This is one part of a sample in which actives are shown more often than they occur.
Label YES for high-side fold change (at or above 2) and NO for low-side fold change (below it).

Please review the entries below; each comes with its answer.
1. Clc1ccc2c(N3CCNCC3)ccnc2c1: NO
2. N#CC1=C(N)Oc2c(c(=O)oc3ccccc23)C1c1cccc2ccccc12 (stereo not drawn): NO
3. CC1CN(c2ccc([N+](=O)[O-])c3cccnc23)CC(C)N1 (stereo not drawn): YES
4. Cc1cc(C)c(C)c(C=C(C#N)C#N)c1C: NO
5. CN1CCN(c2ccc([N+](=O)[O-])c3cccnc23)CC1: NO

We next turn to a different molecule, shown below.
Q: Decide: fold change of O=C(CCl)NCc1ccco1 >= 2?
A: NO

* * *

- assay notes: survival after telomere uncapping, modulators, primary screen, cell-based (AID 1259312);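 also: virus expresses mutant telomerase RNA that uncaps telomeres and kills cells; compound added 2 days after infection so exposure lasts 3 days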
- settings: HCT116 + Ad-hTR-mut, MTT, 5 d; at 10 µM
Out of some 4,500 compounds screened, about 200 (4.4%) were called active.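 The calls were made as follows: active = cell survival measured by absorbance rises more than 2.5-fold over infected cells without compound; inactive = the rest.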 For the sample, actives were picked, then their nearest neighbours and some compounds at random.
Entry note: the call must match one of active, inactive

1. COc1ccc(CC2NCCc3cc(OC)c(OC)cc32)cc1OC (stereo not given): inactive

Q: Outcome logged for O=[N+]([O-])c1ccc(Cl)c2nonc12 in this assay:
A: inactive

Q: How was Nc1nonc1[N+](=O)[O-] classified in this test?
A: inactive

Q: What was the test verdict on O=C(CCl)Nc1ccccn1 ?
A: inactive

Q: What is the recorded call for this compound in the test? C[C@]12CC[C@H](O)C[C@@H]1CC[C@@H]1[C@@H]2CC[C@]2(C)C(=O)CC[C@@H]12
A: inactive

Q: Please let me know the test result on file for NC1(Cc2ccc(Cl)cc2)CC1 .
A: inactive

Q: Could you check what this test reported for CCC1CN2CCC1CC2C(O)c1ccnc2ccc(OC)cc12 (stereo not given) ?
A: inactive

Q: Could you please tell me the result logged for COc1cc2c(cc1OC)C13CCN4CC5=CCOC6CC(=O)N2C1C6C5CC43 (stereo not given) in this assay?
A: active

Q: Which outcome did this test record for the compound C[C@]12CC[C@H]3[C@@H](CC[C@]4(O)C[C@@H](O)CC[C@]34C=O)[C@@]1(O)CC[C@@H]2C1=CC(=O)OC1 ?
A: inactive

Q: Called result for COc1cc2c(cc1OC)C(C)NCC2 (stereo not given)
A: inactive

* * *

- assay notes: survival after telomere uncapping, modulators, primary screen, cell-based (AID 1259312);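 also: virus expresses mutant telomerase RNA that uncaps telomeres and kills cells; compound added 2 days after infection so exposure lasts 3 days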
- settings: HCT116 + Ad-hTR-mut, MTT, 5 d; at 10 µM, active compounds read high
Out of some 4,500 compounds screened, about 200 (4.4%) were called active. Shown is part of a subset that was picked to be rich in actives.
Listed molecules paired with reported fold change
The answer should be written as a number, with no unit following it.

Example entries begin here.
1) O=[N+]([O-])c1ccc(N2CCOCC2)cc1Cl: 4.62
2) CC1CN(c2ccccc2[N+](=O)[O-])CCN1 (configuration not stated): 1.8
3) CN1CCN(c2ccc([N+](=O)[O-])c(N3CCN(C)CC3)c2)CC1: -1.49
4) CC1CN(c2ccc([N+](=O)[O-])c(N3CCOCC3)c2)CCN1 (configuration not stated): -1.03

Sample O=[N+]([O-])c1ccc(NCCO)c2ncccc12 ; fold change observed: 2.89

CCc1cc(CC)c(C=C(C#N)C#N)c(CC)c1 yielded fold change of 1.07

According to the records, this molecule Cc1cc(C)[n+]2cc(Br)ccc2n1 displays fold change of 1.21

* * *

- assay notes: survival after telomere uncapping, modulators, primary screen, cell-based (AID 1259312);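 also: virus expresses mutant telomerase RNA that uncaps telomeres and kills cells; compound added 2 days after infection so exposure lasts 3 days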
- settings: HCT116 + Ad-hTR-mut, MTT, 5 d; at 10 µM
About 200 (4.4%) of roughly 4,500 compounds were called active.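 How the source made its calls: active means cell survival measured by absorbance rises more than 2.5-fold over infected cells without compound; inactive means the rest.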 The entries come from a sample that favours actives as a whole.
Thanks in advance; please answer with one of these: active, inactive

# example entries with known answers
1) CCOC(=O)c1c(NC(=O)C2C(C)(C)C2(C)C)sc2c1CCC2: inactive
2) O=[N+]([O-])c1ccc(N2CCNCC2)c2cccnc12: inactive
3) N#Cc1c(/N=C/c2c(O)n(Cc3ccco3)c(=O)[nH]c2=O)sc2c1CCCC2: inactive
4) CN1CCN(c2ccc([N+](=O)[O-])cc2Cl)CC1: inactive

Q: Assay result, entry COc1cc2c(cc1O)CCNC2C (stereo not given) — outcome?
A: active
